# Procedure Summary: solvent given as SMILES
# Test Conditions: in ClCCl
Assay Endpoint: emission maximum (nm)

Examples from the recorded data:
| Compound | Assay Endpoint | Recorded Result |
| --- | --- | --- |
| CCCCCCCCCCCCN1C(=O)c2c(c3ccc4cc(-c5ccc(C(F)(F)F)cc5)c(OC)cc4c3c3c2ccc2cc(-c4ccc(C(F)(F)F)cc4)c(OC)cc23)C1=O | emission maximum | 522 |
| F[B-]1(F)n2cccc2C(c2c3ccccc3cc3ccccc23)=C2C=CC=[N+]21 | emission maximum | 520 |
| CC(C)(C)c1ccc2c(c1)c1cc(C(C)(C)C)ccc1n2-c1ccc(N(c2ccc(-c3ccc(-c4ccc(-c5ccc(-c6ccc(N(c7ccc(-n8c9ccc(C(C)(C)C)cc9c9cc(C(C)(C)C)ccc98)cc7)c7ccc(-n8c9ccc(C(C)(C)C)cc9c9cc(C(C)(C)C)ccc98)cc7)cc6)cc5)c5nsnc45)cc3)cc2)c2ccc(-n3c4ccc(C(C)(C)C)cc4c4cc(C(C)(C)C)ccc43)cc2)cc1 | emission maximum | 513 |

(1) COc1ccc(-c2ccc(/C=C/c3ccncn3)cc2)cc1
(2) CC(C)CCCC(C)CCN1C(=O)c2ccc3c(-c4ccccc4)c4c5ccc6c7c(ccc(c(-c8ccccc8)c4c4ccc(c2c34)C1=O)c75)C(=O)N(CCC(C)CCCC(C)C)C6=O (stereo not given)
Q. Of the two listed items, which has the higher emission maximum? First: 1 Second: 2 Your answer should be the label attached to the chosen record.
A. 2

* * *

# Procedure Summary: solvent given as SMILES
# Test Conditions: in ClCCl
Assay Endpoint: emission maximum (nm)

(A) c1ccc2c(-c3cc4c(ccc5sccc54)s3)cccc2c1
(B) c1ccc(C2=C3C4=C(C5=[N+]3[B-]3(Oc6ccccc65)Oc5ccccc5-c5c6c(c2n53)C2CCC6CC2)C2CCC4CC2)cc1 (stereo unspecified)
Q. Field: entry with larger emission maximum (options A / B ). Indicate your choice by writing its label.
A. B
(B: 645 nm, A: 405 nm)

* * *

# Procedure Summary: solvent given as SMILES
# Test Conditions: in CO
Assay Endpoint: emission maximum (nm)

The cases that follow already have their emission maximum on record.
| Compound | emission maximum (nm) |
| --- | --- |
| O=P1(c2ccccc2)C2=C(c3ccccc31)C(c1ccccc1)(c1ccccc1)c1cc(N(c3ccccc3)c3ccccc3)ccc12 (stereo not given) | 608 |
| O=C(O)CCCc1ccc2ccc3cccc4ccc1c2c34 | 375 |

(I) Cc1ccc(/C=C(\c2ccccc2)c2nc3ccccc3s2)cc1
(II) CC(=O)c1ccc(-c2nc3ccc(N(C)C)cc3s2)cc1
Q. Form: Entry with minimum emission maximum (choose one): I / II Your choice should be expressed through its label.
A. I
(I: 410 nm, II: 676 nm)

* * *

The compounds listed here are annotated with their emission maximum.
# Procedure Summary: solvent given as SMILES
# Test Conditions: in CN(C)C=O
Give just the number in nm; leave the unit off.

Sample records with emission maximum:
| Compound | Assay Endpoint | Recorded Result |
| --- | --- | --- |
| CC(C)(C)c1ccc2c(c1)[nH]c1c3[nH]c4cc(C(C)(C)C)ccc4c3c3nsnc3c21 | emission maximum | 507 |
| CCCCC(CC)Cn1c2ccc(C(=C(C#N)C#N)c3ccccc3)cc2c2c(-c3ccc(Br)cc3)c3c(c(-c4ccc(Br)cc4)c21)c1cc(C(=C(C#N)C#N)c2ccccc2)ccc1n3CC(CC)CCCC (stereo not drawn) | emission maximum | 535 |

Q. In one line, give reported emission maximum of the entry O=C(c1ccc(N(c2ccccc2)c2ccccc2)cc1)[C@H]1[C@H](c2ccc(F)cc2)C[C@](O)(c2ccccn2)C[C@]1(O)c1ccccn1 .
A. 524

* * *

# Procedure Summary: solvent given as SMILES
# Test Conditions: in CCOCC
Assay Endpoint: emission maximum (nm)
Record the value in nm, omitting the unit from your answer.

| Smiles String | Unit Tag | emission maximum |
| --- | --- | --- |
| CCCCCCCCC1(CCCCCCCC)c2cc(-c3ccc(C(F)(F)F)cc3)ccc2-c2ccc(N(c3ccc(-n4c5ccccc5c5ccccc54)cc3)c3ccc4c(c3)C(CCCCCCCC)(CCCCCCCC)c3cc(-c5ccc(C(F)(F)F)cc5)ccc3-4)cc21 | nm | 432 |

Q. Provide only the value of recorded emission maximum for CN(C)c1ccc(C(=O)Nc2cccc(Br)c2)cc1
A. 445

Q. Supply reported emission maximum belonging to this compound: Cc1ccc(NC(=O)c2ccc(N(C)C)cc2)cc1
A. 518

Q. Write down emission maximum measured for item Nc1ccc2c(c1)C(=O)NC2=O
A. 425

Q. Identify emission maximum associated with the compound CCC1(CC)c2cc(N(C)C)ccc2-c2ccc(C(F)(F)F)cc21
A. 373

Q. Give me measured emission maximum, please, for this compound: N#Cc1c(-c2ccccc2)cc(-c2ccccc2)[nH]c1=S
A. 518

Q. Please report the measured emission maximum for CCN(CC)c1ccc2ccc(=O)oc2c1
A. 405

Q. Annotate the compound CCC1(CC)c2cc(C=C(C#N)C#N)ccc2-c2ccc(N(C)C)cc21 with its measured emission maximum.
A. 579

Q. Fill in emission maximum for record Cn1cccc1-c1ccc(C#N)cc1
A. 371

Q. Supply emission maximum value. Item: Oc1ccccc1/N=C/c1ccccc1Oc1ccccc1
A. 420

Q. Kindly indicate its recorded emission maximum. Item: CC(=O)c1ccc(NC(=O)c2ccc(N(C)C)cc2)cc1
A. 470

* * *

# Procedure Summary: solvent given as SMILES
# Test Conditions: in OCC(F)(F)F
Assay Endpoint: emission maximum (nm)

| Compound | Assay Endpoint | Recorded Result |
| --- | --- | --- |
| CCC1=C(C)C2=C(C)c3cc(I)cn3[B-](F)(F)[N+]2=C1C | emission maximum | 530.5 |

(a) N#Cc1ccc2[nH]ccc2c1
(b) Cc1ccc(C2=C3C=C(I)C(I)=[N+]3[B-](F)(F)n3c2cc(I)c3I)cc1
Q. Of a and b , whose reported emission maximum is the larger number? Answer by stating the label of the chosen item.
A. b

* * *

# Procedure Summary: solvent given as SMILES
# Test Conditions: in c1ccccc1
Assay Endpoint: emission maximum (nm)
Provide only the numeric value, understood in nm.

Completed entries (count: 2):
| Smiles String | Assay Endpoint | Recorded Result |
| --- | --- | --- |
| CN(C)c1ccc(/C=C/C=C/c2nc3ccccc3s2)cc1 | emission maximum | 504 |
| CCN(CC)c1ccc2ccc(=O)oc2c1 | emission maximum | 395 |

Kindly review the next molecule as well.
Q. Look up and state reported emission maximum for CCN1c2ccc(-c3cc(C(F)(F)F)[nH]n3)cc2Sc2cc(-c3cc(C(F)(F)F)[nH]n3)ccc21
A. 463

* * *

# Procedure Summary: solvent given as SMILES
# Test Conditions: in C1CCOC1
Assay Endpoint: emission maximum (nm)

| Compound | Unit Tag | emission maximum |
| --- | --- | --- |
| c1ccc(-c2nc(-c3ccccc3)nc(-c3cc(-n4c5ccccc5c5ccccc54)cc(-n4c5ccccc5c5ccccc54)c3)n2)cc1 | nm | 546.94 |
| CC(C)(C)c1ccc2c(c1)c1cc(C(C)(C)C)ccc1n2-c1ccccc1-c1nc(-c2ccccc2P(=O)(c2ccccc2)c2ccccc2)nc(-c2ccccc2P(=O)(c2ccccc2)c2ccccc2)n1 | nm | 515.1 |
| O=P1(c2ccccc2)C(c2ccc(N(c3ccccc3)c3ccccc3)cc2)=Cc2ccccc21 (stereo not drawn) | nm | 521 |
| Clc1cnc2nn3ccccc3c2n1 | nm | 448 |
| O=S1(=O)C(c2ccsc2)=C(c2ccsc2)c2ccccc21 | nm | 433 |
| COC(=O)C(Cc1ccc2oc(-c3ccc(-n4c5ccccc5c5ccccc54)cc3)nc2c1)NC(=O)OC(C)(C)C (stereo not drawn) | nm | 429 |
| CCCCn1c2ccc(/C=C(\C#N)c3ccc([N+](=O)[O-])cc3)cc2c2cc(Cn3c(-c4ccc5c(c4)c4ccccc4n5CCCC)nc4ccccc43)ccc21 | nm | 539 |
| CN(C)c1ccc(C2=Nc3scc(-c4ccc([N+](=O)[O-])cc4)[n+]3[B-](F)(F)O2)cc1 | nm | 454 |
| CCn1c2ccccc2c2cc(C#Cc3cc(C#Cc4ccc5c(c4)c4ccccc4n5CC)nc(SC)n3)ccc21 | nm | 449 |
| CN(C)c1ccc(C(=O)Nc2cccc(Br)c2)cc1 | nm | 455 |
| CCCCC1(CCCC)c2cc(C#Cc3ccc(C=C4c5ccccc5CCc5ccccc54)cc3)ccc2-c2ccc(C#Cc3ccc(C=C4c5ccccc5CCc5ccccc54)cc3)cc21 | nm | 406 |
| C#CC1CN2CCC1CC2[C@@H](O)c1ccnc2ccc(OC)cc12 (stereo partly drawn) | nm | 361 |
| CC(C)(C)c1ccc(C2=Cc3cc4c(cc3P2(=O)c2ccccc2)C=C(c2ccc(C(C)(C)C)cc2)P4(=O)c2ccccc2)cc1 (stereo not drawn) | nm | 495 |
| O=C(c1ccc(N(c2ccccc2)c2ccccc2)cc1)[C@H]1[C@H](c2ccc(F)cc2)C[C@](O)(c2ccccn2)C[C@]1(O)c1ccccn1 | nm | 502 |
| N#Cc1c(N2CCCCC2)cc(-c2ccc3ccc4cccc5ccc2c3c45)c2c1-c1ccccc1C2=O | nm | 528 |
| [C-]#[N+]c1ccc(-c2ccc(NC)cc2)cc1 | nm | 406 |
| C(=C1c2ccccc2CCc2ccccc21)c1ccc(-c2cc(-c3ccc(C=C4c5ccccc5CCc5ccccc54)cc3)cc(-c3ccc(C=C4c5ccccc5CCc5ccccc54)cc3)c2)cc1 | nm | 403 |
| C1=C(c2ccc(-c3cccs3)s2)CCC(c2ccccc2)C1 (stereo not drawn) | nm | 412 |
| Cc1cc(C2=C(c3cc(C)sc3C)P(=O)(c3ccccc3)c3ccccc32)c(C)s1 (stereo not drawn) | nm | 468 |
| CN(C)c1ccc(C2=Nc3sc4cc(Cl)ccc4[n+]3[B-](F)(F)O2)cc1 | nm | 477 |
| CCc1c(C)c2n(c1C)[B-](F)(F)[N+]1=C(c3ccc[nH]3)c3ccccc3C1=C2C | nm | 627 |
| CC1=[N+]2C(=c3c4c5ccccc5cc5cccc(c6cc(C)n(c36)[B-]2(F)F)c54)C=C1 | nm | 637 |
| F[B-]1(F)n2ccnc2-c2cccc[n+]21 | nm | 353 |
| O=S1(=O)C2=C(c3ccc(N(c4ccccc4)c4ccccc4)cc31)C1(C3=C(c4ccccc41)S(=O)(=O)c1cc(N(c4ccccc4)c4ccccc4)ccc13)c1ccccc12 | nm | 561 |
| NS(=O)(=O)c1ccc(N2N=C(c3ccc(O)cc3)CC2c2ccc([N+](=O)[O-])cc2)cc1 (stereo not drawn) | nm | 420 |
| O=C1c2ccccc2C(=O)N1c1ccc(Cn2cncn2)cc1 | nm | 361 |
| N#Cc1c(N2CCCCC2)cc(-c2ccc3ccc4cccc5ccc2c3c45)c2c1-c1ccccc1C2 | nm | 460 |
| CCOc1cc2c(cc1/C=C/C1=CC(=C(C#N)C#N)CC(C)(C)C1)c1ccccc1n2CC | nm | 610 |
| O=S1(=O)C2=C(c3ccc(-c4ccc(N(c5ccccc5)c5ccccc5)cc4)cc31)C1(C3=C(c4ccccc41)S(=O)(=O)c1cc(-c4ccc(N(c5ccccc5)c5ccccc5)cc4)ccc13)c1ccccc12 | nm | 599 |
| COc1ccc(/N=N/c2c(O)c3ccccc3n(C)c2=O)c(S(=O)(=O)O)c1 | nm | 527 |
| Cc1ccc(NC(=O)c2ccc(N(C)C)cc2)cc1 | nm | 532 |
| FC(F)(F)c1ccc(/C=C/c2nc(/C=C/c3ccc(N(c4ccccc4)c4ccccc4)cc3)cc(/C=C/c3ccc(N(c4ccccc4)c4ccccc4)cc3)n2)cc1 | nm | 526 |
| c1ccc(-c2nc(-c3ccccc3)nc(-c3ccc(-n4c5ccccc5c5cc6c(cc54)C(c4ccccc4)(c4ccccc4)c4ccccc4-6)cc3)n2)cc1 | nm | 494.27 |

All figures here come from the Deep4Chem optical property database.
